- Test system: HuT 78 cell adhesion to 5dICAM-Ig
- EXPERIMENT DESCRIPTION: Human T-cell adhesion assay (HuT 78)
- Type: cell-based
- ASSAY SETUP: HuT78, HuT 78 adhesion to 5dICAM-Ig

>  <COMPOUND>
CS(=O)(=O)c1cc(F)cc(C[C@H](NC(=O)c2c(Cl)cc3c(c2Cl)CCN(C(=O)c2ccc4ccoc4c2)C3)C(=O)O)c1 [Compound 25]

>  <EC50>
≤ 0.05 µM

$$$$
>  <COMPOUND>
O=C(N[C@@H](Cc1c[nH]cn1)C(=O)O)c1c(Cl)cc2c(c1Cl)CCN(C(=O)c1ccc(Cl)cc1)C2 [Compound 1]

>  <EC50>
≤ 0.3 µM

$$$$
>  <COMPOUND>
CS(=O)(=O)n1cc(C[C@H](NC(=O)c2c(Cl)cc3c(c2Cl)CCN(C(=O)/C=C/c2ccco2)C3)C(=O)O)c2ccccc21 [Compound 40]

>  <EC50>
≤ 0.3 µM

$$$$
>  <COMPOUND>
O=C(N[C@@H](Cn1cc(CO)nn1)C(=O)O)c1c(Cl)cc2c(c1Cl)CCN(C(=O)c1ccc(Cl)cc1)C2 [Compound 8]

>  <EC50>
≤ 0.1 µM

$$$$
>  <COMPOUND>
CCc1c(C(=O)N[C@@H](CNC(=O)c2cccs2)C(=O)O)c2ccccc2n(CCCc2ccccc2)c1=O [Compound 6]

>  <EC50>
≤ 0.05 µM

$$$$
>  <COMPOUND>
CC(C)n1cc(C[C@H](NC(=O)c2c(Cl)cc3c(c2Cl)CCN(C(=O)c2ccc(Cl)cc2)C3)C(=O)O)nn1 [Compound 24]

>  <EC50>
≤ 0.1 µM

$$$$
>  <COMPOUND>
CS(=O)(=O)c1cccc(C[C@H](NC(=O)c2c(Cl)cc3c(c2Cl)CCN(C(=O)c2ccc4ccoc4c2)C3)C(=O)O)c1 [Compound 12]

>  <EC50>
≤ 0.05 µM

$$$$
>  <COMPOUND>
O=C(NC[C@H](NC(=O)c1cc2c(cc1Cl)C(=O)N(Cc1ccccc1)CC2)C(=O)O)c1cccs1 [Compound 11]

>  <EC50>
≤ 3 µM

$$$$
>  <COMPOUND>
O=C(N[C@@H](CNc1ncnc2ccccc12)C(=O)O)c1c(Cl)cc2c(c1Cl)CCN(C(=O)c1ccc(Cl)cc1)C2 [Compound 3]

>  <EC50>
≤ 0.05 µM

$$$$
>  <COMPOUND>
CS(=O)(=O)Nc1ccccc1NC[C@H](NC(=O)c1c(Cl)cc2c(c1Cl)CCN(C(=O)c1ccc(Cl)cc1)C2)C(=O)O [Compound 39]

>  <EC50>
≤ 0.05 µM

$$$$
>  <COMPOUND>
O=C(NC[C@H](NC(=O)c1c(Cl)cc2c(c1Cl)CCN(C(=O)c1ccc3cc[nH]c3c1)C2)C(=O)O)c1cccs1 [Compound 13]

>  <EC50>
≤ 0.05 µM

$$$$
>  <COMPOUND>
CS(=O)(=O)c1cncc(C[C@H](NC(=O)c2c(Cl)cc3c(c2Cl)CCN(C(=O)c2ccc4ccoc4c2)C3)C(=O)O)c1 [Compound 33]

>  <EC50>
≤ 0.05 µM

$$$$
